target: human EGFR WT (NIH/3T3 cells, EGF-induced) (Homo sapiens); experiment: EGFR target modulation in engineered NIH/3T3 cell lines (phospho-EGFR Y1068 AlphaLISA), EGFR WT; format: cell-based; settings: engineered NIH/3T3 cells, read-out: NIH3T3 IC50 (μM) EGFR (WT)
Sequence (P00533 25-1210): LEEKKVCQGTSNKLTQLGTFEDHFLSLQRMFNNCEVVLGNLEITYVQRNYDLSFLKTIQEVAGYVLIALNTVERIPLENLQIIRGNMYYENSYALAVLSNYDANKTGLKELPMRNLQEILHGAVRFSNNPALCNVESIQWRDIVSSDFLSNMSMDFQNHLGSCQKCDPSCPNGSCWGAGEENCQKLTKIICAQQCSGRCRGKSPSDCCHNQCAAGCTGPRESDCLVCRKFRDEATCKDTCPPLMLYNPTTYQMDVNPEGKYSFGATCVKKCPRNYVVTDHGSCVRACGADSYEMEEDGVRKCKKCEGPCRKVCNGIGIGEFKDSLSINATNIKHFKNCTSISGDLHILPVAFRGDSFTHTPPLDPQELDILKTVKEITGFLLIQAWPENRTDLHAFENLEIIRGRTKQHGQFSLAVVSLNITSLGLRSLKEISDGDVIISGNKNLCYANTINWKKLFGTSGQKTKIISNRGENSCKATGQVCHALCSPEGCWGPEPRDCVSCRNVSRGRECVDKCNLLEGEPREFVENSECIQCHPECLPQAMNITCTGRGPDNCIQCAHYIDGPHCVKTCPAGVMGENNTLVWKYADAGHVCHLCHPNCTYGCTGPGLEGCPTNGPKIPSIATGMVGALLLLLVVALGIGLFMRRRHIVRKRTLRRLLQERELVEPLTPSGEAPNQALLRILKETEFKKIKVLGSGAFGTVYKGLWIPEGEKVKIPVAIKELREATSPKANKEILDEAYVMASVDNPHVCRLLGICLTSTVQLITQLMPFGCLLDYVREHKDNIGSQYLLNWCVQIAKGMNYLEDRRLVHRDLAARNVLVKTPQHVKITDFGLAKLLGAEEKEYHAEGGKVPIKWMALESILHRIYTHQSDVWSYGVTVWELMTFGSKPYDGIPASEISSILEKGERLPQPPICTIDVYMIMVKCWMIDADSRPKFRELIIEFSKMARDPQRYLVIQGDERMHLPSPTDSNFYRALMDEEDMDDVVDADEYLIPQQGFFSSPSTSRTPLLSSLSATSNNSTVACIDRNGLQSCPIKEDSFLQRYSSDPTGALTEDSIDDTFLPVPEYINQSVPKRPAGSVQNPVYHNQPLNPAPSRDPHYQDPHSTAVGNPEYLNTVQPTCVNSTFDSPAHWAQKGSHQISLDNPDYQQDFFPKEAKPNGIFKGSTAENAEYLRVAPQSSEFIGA
quantity: IC50 (µM)

molecule: C=CC(=O)N1CCCC[C@@H](n2c(NC(=O)c3ccnc(C)c3)nc3cc(CN4CC(F)(F)C4)cc(C)c32)C1
relation.qualifier: =
observed.result: 0.037
//
molecule: Cc1cccc2nc(NC(=O)c3ccn(C)c(=O)c3)n(C3CCCCN(C(=O)/C=C/CN(C)C)C3)c12 (stereo not shown)
relation.qualifier: =
observed.result: 0.33
//
molecule: C=CC(=O)N1CCC[C@@H](n2c(NC(=O)c3cccc(C(F)(F)F)c3)nc3cc(CN4CCC(F)(F)C4)ccc32)C1
relation.qualifier: >
observed.result: 7.6
//
molecule: C=CC(=O)N1CCC[C@@H](n2c(NC(=O)c3cccc(C(F)(F)F)c3)nc3cc(COCCOC)ccc32)C1
relation.qualifier: >
observed.result: 10

----------
Attribute: IC50
target: human EGFR L858R/T790M (NIH/3T3 cells) (Homo sapiens, UniProt P00533, L858R/T790M); assay: EGFR target modulation in engineered NIH/3T3 cell lines (phospho-EGFR Y1068 AlphaLISA), EGFR L858R/T790M; format: cell-based; conditions: engineered NIH/3T3 cells, read-out: NIH3T3 IC50 (μM) EGFR (L858R/T790M)

compound: Cc1cccc2nc(NC(=O)c3cccc(F)c3F)n(C3CCCCN(C(=O)/C=C/CN(C)C)C3)c12 (stereo not shown)
unit.of.measure: µM
IC50: 0.005
--
compound: C=CC(=O)N1CCCC[C@@H](n2c(NC(=O)c3cccc(C(F)(F)F)c3)nc3cccc(Cl)c32)C1
unit.of.measure: µM
IC50: 0.004
--
compound: Cc1cc(C(=O)Nc2nc3cccc(Cl)c3n2[C@@H]2CCCCN(C(=O)/C=C/CN3CC(F)(F)C3)C2)ccn1
unit.of.measure: µM
IC50: 0.148
--
compound: Cc1cc(C(=O)Nc2nc3cccc(Cl)c3n2[C@@H]2CCCCN(C(=O)/C=C/CN3CCC3)C2)ccn1
unit.of.measure: µM
IC50: 0.123
--
compound: Cc1cc(C(=O)Nc2nc3cccc(Cl)c3n2[C@@H]2CCCCN(C(=O)/C=C/CN3CC(O)C3)C2)ccn1
unit.of.measure: µM
IC50: 0.022
--
compound: Cc1cccc2nc(NC(=O)c3ncccn3)n(C3CCCCN(C(=O)/C=C/CN(C)C)C3)c12 (stereo not shown)
unit.of.measure: µM
IC50: 2.96
--
compound: Cc1cccc2nc(NC(=O)c3cccnn3)n(C3CCCCN(C(=O)/C=C/CN(C)C)C3)c12 (stereo not shown)
unit.of.measure: µM
IC50: 0.072

----------
biological target: UniProtKB P00533; assay: EGFR target modulation in HEKn (EGFR-WT) cell line (phospho-EGFR Y1173 ELISA); conditions: value outside parentheses
// reported IC50 per item
quantity: IC50 (nM)

compound: Cc1cccc2nc(NC(=O)c3ccncn3)n(C3CCCCN(C(=O)/C=C/CN(C)C)C3)c12 (centres unmarked) [Example 17-37]
quantity: IC50
relation.qualifier: >
observed.result: 10000

compound: COc1cccc2nc(NC(=O)c3ccnc(C)c3)n([C@@H]3CCCCN(C(=O)/C=C/CN(C)C)C3)c12 [Example 17-176]
quantity: IC50
relation.qualifier: =
observed.result: 870

compound: C=CC(=O)N1CCCC[C@@H](n2c(NC(=O)c3ccnc(C)c3)nc3cc(CN4CC(OC)C4)cc(C)c32)C1 [Example 17-154]
quantity: IC50
relation.qualifier: =
observed.result: 79

compound: C/C=C/C(=O)N1CCCC[C@@H](n2c(NC(=O)c3ccnc(C)c3)nc3cc(CN4CC[C@@H](OC)C4)cc(C)c32)C1 [Example 17-163]
quantity: IC50
relation.qualifier: =
observed.result: 1260

compound: Cc1cc(C(=O)Nc2nc3cccc(C)c3n2[C@@H]2CCCN(C(=O)/C=C/CN(C)C)C2)ccn1 [Example 17-4]
quantity: IC50
relation.qualifier: >
observed.result: 10000

compound: C=CC(=O)N1CCC[C@@H](n2c(NC(=O)c3cccc(C(F)(F)F)c3)nc3cc(CN4CCCC4)ccc32)C1 [Example 17-117]
quantity: IC50
relation.qualifier: >
observed.result: 10000

compound: Cc1cccc2nc(NC(=O)c3ccncc3)n(C3CCCCN(C(=O)/C=C/CN(C)C)C3)c12 (centres unmarked) [Example 17-35]
quantity: IC50
relation.qualifier: =
observed.result: 285

compound: Cc1cccc2nc(NC(=O)c3cncc(C(F)(F)F)c3)n([C@@H]3CCCCN(C(=O)/C=C/CN(C)C)C3)c12 [Example 17-67]
quantity: IC50
relation.qualifier: =
observed.result: 249

compound: C=CC(=O)N1CCCC[C@@H](n2c(NC(=O)c3cccc(C(F)(F)F)c3)nc3cccc(C)c32)C1 (single isomer, unassigned) [Example 21-4]
quantity: IC50
relation.qualifier: =
observed.result: 285

compound: C=CC(=O)N1CCCC[C@@H](n2c(NC(=O)c3ccnc(C)c3)nc3cc(CN4CCC4)cc(C)c32)C1 [Example 17-145]
quantity: IC50
relation.qualifier: =
observed.result: 95

compound: Cc1cccc2nc(NC(=O)c3ccc(F)cc3F)n(C3CCCCN(C(=O)/C=C/CN(C)C)C3)c12 (centres unmarked) [Example 17-28]
quantity: IC50
relation.qualifier: =
observed.result: 370

compound: C=CC(=O)N1CCCC[C@@H](n2c(NC(=O)c3ccnc(C)c3)nc3cccc(Cl)c32)C1 [Example 17-17]
quantity: IC50
relation.qualifier: =
observed.result: 176

compound: COc1cc2nc(NC(=O)c3cc(C)nc(C)c3)n([C@@H]3CCCCN(C(=O)/C=C/CN(C)C)C3)c2cc1Cl [Example 17-179]
quantity: IC50
relation.qualifier: =
observed.result: 5400

compound: C=CC(=O)N1CCCC[C@@H](n2c(NC(=O)c3ccnnc3)nc3cccc(Cl)c32)C1 [Example 17-15]
quantity: IC50
relation.qualifier: =
observed.result: 259

----------
target: HEKn (EGFR WT) (Homo sapiens); test: EGFR target modulation in HEKn (EGFR-WT) cell line (phospho-EGFR Y1173 ELISA); format: cell-based; details: value outside parentheses
Sequence (P00533 25-1210): as above
quantity: log10(IC50) (log10 of the value in nM)

molecule: C=CC(=O)N1CCCC[C@@H](n2c(NC(=O)c3ccnc(C)c3)nc3cc(CN4CCCCC4)cc(C)c32)C1
log10(IC50): 1.86
--
molecule: C=CC(=O)N1CCCC[C@@H](n2c(NC(=O)c3ccnnc3)nc3cccc(OC(C)C)c32)C1
log10(IC50): 2.85
--
molecule: Cc1cc(C(=O)Nc2nc3cccc(C)c3n2[C@@H]2CCCCN(C(=O)/C=C/CN(C)C)C2)ccn1
log10(IC50): 1.87
--
molecule: Cc1cc(C(=O)Nc2nc3cccc(Cl)c3n2[C@@H]2CCCCN(C(=O)/C=C/CN3CC[C@@H](F)C3)C2)ccn1
log10(IC50): 2.53
--
molecule: C=CC(=O)N1CCCC[C@@H](n2c(NC(=O)c3ccnc(C)c3)nc3cc(CN4CCCC4)cc(C)c32)C1
log10(IC50): 1.81
--
molecule: CNC/C=C/C(=O)N1CCCC[C@@H](n2c(NC(=O)c3cc(C)nc(C)c3)nc3cccc(Cl)c32)C1
log10(IC50): 2.46
--
molecule: Cc1cc(C(=O)Nc2nc3cccc(C)c3n2[C@@H]2CCCCN(C(=O)/C=C/CN(C)C)C2)cnn1
log10(IC50): 2.57
--
molecule: Cc1cccc2nc(NC(=O)c3ccnc(OC(F)F)c3)n([C@@H]3CCCCN(C(=O)/C=C/CN(C)C)C3)c12
log10(IC50): 1.99
--
molecule: Cc1cccc2nc(NC(=O)c3ccc(Cl)nc3)n([C@@H]3CCCCN(C(=O)/C=C/CN(C)C)C3)c12
log10(IC50): 1.38
--
molecule: Cc1cc(C(=O)Nc2nc3cccc(Cl)c3n2[C@@H]2CCCCN(C(=O)/C=C/CN3CCCC3)C2)ccn1
log10(IC50): 2.65
--
molecule: COc1ccc(C(=O)Nc2nc3cccc(C)c3n2C2CCCCN(C(=O)/C=C/CN(C)C)C2)cn1 (stereo not shown)
log10(IC50): 2.15
--
molecule: Cc1cccc2nc(NC(=O)c3ccnnc3)n(C3CCCCN(C(=O)/C=C/CN(C)C)C3)c12 (stereo not shown)
log10(IC50): 2.35

----------
# IC50 per record follows
target: EGFR(L858R/T790M) (Homo sapiens, UniProt P00533, L858R/T790M); construct: purchased from Carna (GST-a.a. 669-1210); test: EGFR biochemical assay (HTRF), IC50 determinations; conditions: EGFR (L858R/T790M) with no pre-incubation; read-out: IC50 (μM) Column A
Sequence (P00533 669-1210 T790M/L858R): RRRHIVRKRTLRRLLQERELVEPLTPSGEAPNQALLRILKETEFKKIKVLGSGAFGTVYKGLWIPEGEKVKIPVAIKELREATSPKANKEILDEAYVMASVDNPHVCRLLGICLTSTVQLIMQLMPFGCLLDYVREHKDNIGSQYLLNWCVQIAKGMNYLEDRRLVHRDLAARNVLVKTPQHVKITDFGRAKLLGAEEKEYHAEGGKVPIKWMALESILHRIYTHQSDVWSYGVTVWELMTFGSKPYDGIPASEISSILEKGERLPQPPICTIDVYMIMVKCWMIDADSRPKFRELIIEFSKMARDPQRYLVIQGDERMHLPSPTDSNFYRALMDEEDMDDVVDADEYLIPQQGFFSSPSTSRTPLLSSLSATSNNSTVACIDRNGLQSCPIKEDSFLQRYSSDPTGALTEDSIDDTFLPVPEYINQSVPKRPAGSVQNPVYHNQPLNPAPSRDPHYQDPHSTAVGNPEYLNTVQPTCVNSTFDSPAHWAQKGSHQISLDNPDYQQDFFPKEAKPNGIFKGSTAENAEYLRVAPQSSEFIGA

molecule: C=CC(=O)N1CCCC[C@@H](n2c(NC(=O)c3ccnc(C)c3)nc3cc(CN4CCS(=O)(=O)CC4)cc(C)c32)C1
IC50: 0.002 µM
//
molecule: Cc1cccc2nc(NC(=O)c3ccc(F)c(F)c3)n(C3CCCCN(C(=O)/C=C/CN(C)C)C3)c12 (stereo not shown)
IC50: 0.005 µM
//
molecule: C=CC(=O)N1CCCC[C@@H](n2c(NC(=O)c3ccnnc3)nc3cccc(C)c32)C1
IC50: 0.002 µM
//
molecule: Cc1cc(C(=O)Nc2nc3cccc(Cl)c3n2[C@@H]2CCCCN(C(=O)/C=C/CN3CCC(F)(F)C3)C2)ccn1
IC50: 0.156 µM
//
molecule: Cc1cccc2nc(NC(=O)c3ccnc(-c4ccccc4)c3)n([C@@H]3CCCCN(C(=O)/C=C/CN(C)C)C3)c12
IC50: < 0.001 µM
//
molecule: Cc1cccc2nc(NC(=O)c3ccnc(C(C)(C)C)c3)n(C3CCCCN(C(=O)/C=C/CN(C)C)C3)c12 (stereo not shown)
IC50: 0.004 µM
//
molecule: COc1cccc2nc(NC(=O)c3ccnnc3)n([C@@H]3CCCCN(C(=O)/C=C/CN(C)C)C3)c12
IC50: 0.02 µM
